Entries annotated with measured pIC50
- Tested target: Aurora A (Homo sapiens, UniProt O14965)
- Construct: N-terminal GST fusion with full length Aurora A (1-403 amino acids)
- Sequence (O14965 whole entry, the tested form may be a part): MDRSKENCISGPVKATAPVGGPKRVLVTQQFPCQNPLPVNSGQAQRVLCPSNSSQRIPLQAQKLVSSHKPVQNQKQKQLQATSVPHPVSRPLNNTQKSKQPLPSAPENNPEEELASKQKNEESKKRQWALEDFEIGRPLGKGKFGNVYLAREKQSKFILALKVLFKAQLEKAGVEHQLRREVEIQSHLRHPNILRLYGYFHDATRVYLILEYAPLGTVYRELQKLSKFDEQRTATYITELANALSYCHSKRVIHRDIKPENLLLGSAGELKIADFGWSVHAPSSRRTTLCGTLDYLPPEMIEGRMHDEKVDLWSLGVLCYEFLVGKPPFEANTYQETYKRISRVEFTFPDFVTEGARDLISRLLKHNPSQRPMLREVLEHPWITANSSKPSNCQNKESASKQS
- Test summary: Aurora A enzyme assay (Caliper LC3000 mobility shift)
pIC50: −log10 of the molar value.

NC(=O)[C@H]1C([C@@H](O)CO)CC2C(O)[C@H](O)COc3cccc(c3)Nc3ncc(F)c(n3)N[C@H]21 (stereo partly drawn) | 5.20 to 6.00
CN1CCN(c2ccc3cc2CNC[C@@H]2C[C@@H]4C[C@H]2[C@@H](Nc2nc(ncc2F)N3)[C@H]4C(N)=O)CC1 | 6.00 to 7.00
CN1CCN(c2ccc3cc2C(=O)CS(=O)(=O)[C@@H]2C[C@@H]4C[C@H]2[C@@H](Nc2nc(ncc2F)N3)[C@H]4C(N)=O)CC1 | 7.00 to 9.00
CN1CCN(c2ccc3cc2[C@@H](O)CS[C@@H]2C[C@@H]4C[C@H]2[C@@H](Nc2nc(ncc2F)N3)[C@H]4C(N)=O)CC1 | 7.00 to 9.00
NC(=O)[C@H]1[C@H]2C[C@H]3[C@H]1Nc1nc(ncc1F)Nc1cccc(c1)/C=C\S[C@@H]3C2 | 6.00 to 7.00

Now consider a different compound.
Output pIC50 of "NC(=O)[C@H]1[C@@H]2C[C@H]3CNC(=O)Cn4cc(cn4)Nc4ncc(F)c(n4)N[C@@H]1[C@@H]3C2"
7.00 to 9.00
